B1: ATL3 (parent)
chain: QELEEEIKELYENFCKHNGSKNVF

Variants of: B1
Assay info: protein stability index of a GFP-peptide fusion (GPS, HEK-293T) (PSI 1-6); higher = more stable;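 also: lentivirally expressed fusions sorted by FACS into six bins by GFP to DsRed ratio, PSI derived from sequencing read proportions per bin multiplied by bin number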
Test settings: c terminus: a fixed tail appended

Mutant code | protein stability index
F24V | 3.01
H17M | 2.96
Q1L | 1.76
K21I | 2.12
E5R | 2.02
N18H | 2.94
V23Y | 1.94
I7P | 4.5
N13W | 2.37
E12V | 2.42
F14K | 4.5
N13T | 2.86
K16I | 2.86
E4P | 3.51
Q1N | 3.39
K16P | 3.88
E9D | 3.39
K16S | 2.99
I7K | 4.71
N13P | 3.73
E4I | 1.79
E12T | 2.83
F24C | 3.17
N13K | 2.15
F14C | 3.75
F14E | 5.25
N22A | 2.96
E12K | 2.67
E2A | 2.38
E5F | 2.27
C15H | 4.12
K21Q | 2.55
F24L | 2.56
E6C | 2.32
N22C | 2.34
V23E | 3.07
H17G | 2.75
Y11P | 5.15
F24W | 2.46
E12F | 2.56
L3C | 3.71
E12C | 2.35
Y11G | 4.74
H17W | 2.46
Y11S | 4.61
G19T | 2.25
H17P | 3.34
E2M | 2.54
F14Q | 4.49
E6I | 1.78
N13F | 2.72
L10K | 3.92
Y11T | 4.3
N22P | 3.25
E9Y | 2.09
K21E | 1.96
K8T | 3.31
I7F | 3.49
F24I | 2.48
F24R | 3.24
Q1G | 3.31
L3F | 3.54
V23A | 2.73
F14A | 4.29
N13S | 2.6
I7W | 2.26
S20D | 1.97
V23R | 3.44
K16H | 2.74
K16A | 3.17
L10T | 4.54
F24Q | 2.93
E5N | 2.51
K16W | 2.91
S20Y | 2.29
Y11N | 4.68
K16R | 2.73
G19L | 2.55
F14H | 4.07
E2C | 2.65
Q1S | 3.41
E4Y | 2.31
Q1W | 2.03
N13Q | 2.13
E5Y | 1.9
N13E | 2.11
E4V | 2.26
I7G | 4.73
E4T | 3.34
C15Y | 3.77
K8C | 3.01
